Target: LSD1_(172-833), lysine-specific demethylase 1 (human, UniProt O60341-1 172-833)
Assay: enzyme inhibition kinetics (HRP-coupled fluorescence demethylation assay); 25 nM LSD1, substrate H3K4me1_(1-21), 25 mM Tris, 50 mM NaCl, 0.1 mg/mL BSA, pH 8, 1% DMSO; Ki by global fit of competitive inhibition for 1, 11, 24, 28, 31, 33, 34, else from IC50 by Cheng-Prusoff (substrate 20 μM)
Settings: both partners purified
Ends that are not written are not given here.
readout.kind: Ki (µM)
API: value field is a number in µM; no unit string.

# Ki lookup, item PRTMQTARKST-NH2 [A1P-substituted H3_(1-11) K4M (peptide 11)] 8
